# Test Protocol: small-molecule binders of probe aInhba, primary screen, biochemical, small-molecule microarray, 635/667 nm fluorescence (AID 1148);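 further: score merges 667nm spot fluorescence with signal-to-noise for antibody binding to printed compounds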
# Measurement Conditions: higher = more signal
Assign 1.0 whenever composite z-score does not fall below 0.05; assign 0.0 whenever it does.

Sample answers from the record:
- CC(C)CON=C1[C@H]2CCn3c(=O)n(-c4ccccc4)c(=O)n3[C@H]2[C@H](O)[C@@H]2O[C@H]12: 0.0
- C[C@@H]1CC[C@H]2C(=O)O[C@H](COc3ccc(C(C)(C)C)cc3)CN2[C@H]1c1ccc(Br)cc1: 0.0
- COCCOC(=O)N1C(=O)[C@@]2(c3cc(C#CC4(O)CCCCCC4)ccc31)[C@H](C(=O)N1CCN(c3ncccn3)CC1)[C@H]1C(=O)O[C@H](c3ccccc3)[C@H](c3ccccc3)N1[C@@H]2c1ccc(OCCO)cc1: 1.0
- CC(=O)OC[C@H]1O[C@@H](ON=C(C)CCN2CCc3nc(-c4ccccc4)c(-c4ccccc4)cc3C2)[C@H](OC(C)=O)[C@@H](OC(C)=O)[C@@H]1OC(C)=O: 1.0
- COC(=O)[C@H](C)NC(=O)CCC1CC(OC(=O)NCCc2ccc(F)cc2)CC2(CCCC(COC(=O)NCCc3ccc(Cl)cc3)O2)O1 (some centres not stated): 0.0
- COc1ccc(O[C@H]2C=C[C@@H](c3ccccc3)O[C@@H]2COC(=O)CCC(C)=NO[C@@H](C)c2cc(-c3c(C)cc(C)cc3C)no2)cc1: 0.0

-- ask Textbook exercise: given the entry CCN1C(=O)[C@H]2[C@H]3[C@H](O)[C@H](O)CC(=NOCC=C(C)CCC=C(C)C)[C@H]3CC[C@H]2C1=O , state whether its composite z-score is greater than or equal to 0.05.
-- reply 0.0

-- ask Would you say COC(=O)[C@H](C)NC(=O)CCC1CC(OC(=O)NCc2cccc3ccccc23)CC2(CCCC(COC(=O)NCC3CCCCC3)O2)O1 (some centres not stated) shows composite z-score at minimum 0.05?
-- reply 1.0
